# System: COLO 205 colon
# PROTOCOL: NCI-60 one-dose screen, 48 h (100 = growth as untreated, 0 = no growth, -100 = all killed)
# CONDITION_NOTES: 10 µM
This is part of a sample that, as a whole, favours compounds with a hit. Of some 83,000 tested, about 20% had one in any assay.
MEASUREMENT_LABEL: growth (%)
Return type: number; implicit unit %.

Past entries and their recorded results:
{"MOLECULE": "COc1ccc(N(C)c2ncnc3occ(C)c23)cc1", "TGT": "COLO 205 colon", "growth / %": -62.4}
{"MOLECULE": "COc1cc2cc(Oc3ccc(NC(=O)Nc4ccc(Cl)c(C(F)(F)F)c4)cc3)c(C)nc2cc1OC", "TGT": "COLO 205 colon", "growth / %": -49.5}
{"MOLECULE": "CCOC(=O)c1sc2ncnc(Nc3ccc(NC(=O)Nc4ccc(Cl)cc4)cc3)c2c1C", "TGT": "COLO 205 colon", "growth / %": 53}
{"MOLECULE": "O=C(COc1cccc(/C=C2\\CSc3ccc(Cl)cc3C2=O)c1)c1ccc(Cl)cc1", "TGT": "COLO 205 colon", "growth / %": 115}
{"MOLECULE": "NC1=NC(c2ccc(Cl)cc2)C2=C(N1)/C(=C/c1ccc(Cl)cc1)CCC2 (stereo not drawn)", "TGT": "COLO 205 colon", "growth / %": 92}

Any idea what growth was measured for COc1ccc(C(=O)CSc2nc(-c3cc(OC)ccc3OC)cc(-c3ccc(OC)cc3)c2C#N)cc1 ? 98.8

Tell me the measured growth of CCC(C)[C@H](NC(C)=O)C(=O)N[C@@H](CCCNC(=N)N)C(=O)N[C@@H](CCCCN)C(=O)N[C@@H](CC1CCC(O)CC1)C(=O)NC(C(=O)N[C@@H](CCSC)C(=O)N[C@@H](CCCNC(=N)N)C(=O)N[C@@]1(C)CCC/C=C\CCC[C@@](C)(C(=O)NC(C(=O)N[C@@H](CCC(=O)O)C(=O)N[C@@H](CC(C)C)C(=O)N[C@H](C(=O)N[C@@H](CCC(=O)O)C(N)=O)C(C)C)[C@@H](C)O)NC(=O)[C@H](CCC(N)=O)NC(=O)[C@H](CC(C)C)NC(=O)[C@H](CC(C)C)NC1=O)[C@@H](C)O (stereo partly drawn) , please. 89.9

Requested field: growth. Item: COc1ccc2nc(Cl)c(Cn3nnc(Cc4ccccc4)n3)cc2c1 24.9

---

Measured growth accompanies every entry in the list below.
# System: OVCAR-3 ovarian
# PROTOCOL: NCI-60 one-dose screen, 48 h (100 = growth as untreated, 0 = no growth, -100 = all killed)
# CONDITION_NOTES: 10 µM
The panel holds about 83,000 compounds, 20% with a hit somewhere; the sample as a whole holds those more often.
The response must be a number in % with no trailing unit.

Solved cases below.
{"COMPOUND": "O=C1/C(=C/c2ccc3c(c2)OCO3)SC(=S)N1C1c2ccccc2Oc2ccccc21", "TGT": "OVCAR-3 ovarian", "growth, %": 98.1}
{"COMPOUND": "O=C(O)c1ccc(-n2cc(CNc3ccc(Cl)cc3)c(-c3ccccc3)n2)cc1", "TGT": "OVCAR-3 ovarian", "growth, %": 98.6}
{"COMPOUND": "O=C(/C=C/C=C/c1c(C2CC2)nc2ccccc2c1-c1ccc(F)cc1)c1cccs1", "TGT": "OVCAR-3 ovarian", "growth, %": -2.17}
{"COMPOUND": "OCC1OC(n2cnc3c(NCc4ccco4)ncnc32)C(O)C1O (stereo not drawn)", "TGT": "OVCAR-3 ovarian", "growth, %": -41.7}
{"COMPOUND": "COc1ccc(C(=O)N/N=C/c2cc(C(F)(F)F)ccc2Cl)cc1", "TGT": "OVCAR-3 ovarian", "growth, %": 108}
{"COMPOUND": "O=C(Nc1cccc2c1CCCC2)c1cc2ccccc2cc1O", "TGT": "OVCAR-3 ovarian", "growth, %": 28.2}

Entry CCN(CC)c1ccc(/C=C2\SC(=O)C(Nc3nnc(-c4cccnc4SCc4ccccc4)o3)C2=O)cc1 (stereo not drawn) : reported growth = ? -13.5

---

# Tested on: SK-MEL-5 melanoma
# PROTOCOL: NCI-60 one-dose screen, 48 h (100 = growth as untreated, 0 = no growth, -100 = all killed)
# CONDITION_NOTES: 10 µM
About 83,000 compounds went through this panel and 20% of them were active in at least one assay; those are over-represented in the sample as a whole.
# growth annotations
Numbers only; they are read as %.

{"MOLECULE": "Cc1cc(C)nc(NS(=O)(=O)c2ccc(Nc3nc4nc(NCc5ccccc5)nc(-c5ccc(O)cc5)c4c(=O)[nH]3)cc2)n1", "TGT": "SK-MEL-5 melanoma", "growth (%)": 4.9}
{"MOLECULE": "NS(=O)(=O)Oc1ccc(-c2ccc3sccc3c2)cc1", "TGT": "SK-MEL-5 melanoma", "growth (%)": 95.9}
{"MOLECULE": "CCCc1cn(CC(=O)Nc2nc3ccccc3s2)nn1", "TGT": "SK-MEL-5 melanoma", "growth (%)": 99.5}
{"MOLECULE": "COc1ccc(Cl)cc1Nc1nc(C(F)(F)F)ccc1C(=O)N/N=C/c1cc(OC)c(OC)c(OC)c1", "TGT": "SK-MEL-5 melanoma", "growth (%)": 18.8}
{"MOLECULE": "CC(=O)N[C@H](C(=O)N[C@@H](CCCNC(=N)N)C(=O)N[C@@H](CCCCN)C(=O)N[C@@H](CCCNC(=N)N)C(=O)N[C@]1(C)CCCCCC/C=C\\CCC[C@@](C)(C(=O)N[C@@H](CCCNC(=N)N)C(=O)N[C@@H](CCC(=O)O)C(=O)N[C@@H](CC(C)C)C(=O)N[C@H](C(=O)N[C@@H](CCC(=O)O)C(N)=O)C(C)C)NC(=O)[C@H](CCC(N)=O)NC(=O)[C@H](CC(C)C)NC(=O)[C@H](CC(C)C)NC(=O)[C@H](CCCNC(=N)N)NC(=O)[C@H](CCCNC(=N)N)NC(=O)[C@H](CC(C)C)NC1=O)C(C)C", "TGT": "SK-MEL-5 melanoma", "growth (%)": -68.8}
{"MOLECULE": "COc1cc(/C=C/c2cc(/C=C/c3ccc(O)c(OC)c3)n(C(=O)Nc3ccc(C)cc3)n2)ccc1O", "TGT": "SK-MEL-5 melanoma", "growth (%)": 1.16}

Fill in the blank: the reported growth of CC(C)C1=C(O)C2=C(C(=O)C1=O)[C@@]1(C)CCCC(C)(C)[C@@H]1CC2 is ____. 70.1

Tell me the measured growth of O=C(N/N=C/c1ccc(Cl)cc1)c1ccc(Cc2n[nH]c(=O)c3cccnc23)cc1 , please. 100

Can you look up the measured growth of COc1ccc(Cl)cc1Nc1nc(C(F)(F)F)ccc1C(=O)N/N=C/c1ccc(Cl)cc1 for me? 24.3

Sample COc1ccc(CCN2CCC(Nc3nc4ccccc4n3Cc3ccc(F)cc3)CC2)cc1 — what was its growth? -100

Sample O=[N+]([O-])c1cc(Cl)cc(Cl)c1O — what was its growth? 101

Looking for the measured growth of NC(=O)c1cccc(-n2ccc3cc(NC(=O)Nc4ccc(Cl)c(C(F)(F)F)c4)ccc32)n1 , can you help? 78.3

Quick one: growth of N#CC1=CC2CN(Cc3ccccc3)C1C1C(=O)N(c3ccccc3)C(=O)C21 (stereo unspecified) ? 93.3

Could you tell me which growth is on file for COc1cc(-c2nc3ccccc3o2)cc(CN2CCCCC2)c1O ? -83.3

Quick one: growth for CN1CCN(CCC(=O)Nc2cccc(-n3cc(-c4ccncc4)c(-c4ccc(Cl)c(O)c4)n3)c2)CC1 ? 24.2

Give the measured growth of O=C1CC(=O)N(C(=O)c2nn(-c3ccc(Cl)cc3)cc2O)N1 . 47

---

# Test system: UACC-257 melanoma
# PROTOCOL: NCI-60 one-dose screen, 48 h
# CONDITION_NOTES: 10 µM
About 83,000 compounds went through this panel and 20% of them were active in at least one assay; those are over-represented in the sample as a whole. The source made the active and inactive calls. Rule for the calls: active = growth percent below 10; inactive = the rest.
Outcome (select one): active, inactive

Some solved entries appear below for comparison.
{"MOLECULE": "COc1ccc(-c2nn(-c3cccc(Cl)c3)cc2-c2nc(N)[nH]c(=O)c2C#N)cc1", "CLASS_NAME": "inactive"}
{"MOLECULE": "COc1cc(-c2ccc(N=Nc3ccc4c(S(=O)(=O)O)ccc(N)c4c3O)c(OC)c2)ccc1N=Nc1ccc2c(S(=O)(=O)O)ccc(N)c2c1O", "CLASS_NAME": "inactive"}
{"MOLECULE": "Oc1ccc(/C=N/N=C2c3ccccc3-c3ccccc32)c(O)c1", "CLASS_NAME": "inactive"}
{"MOLECULE": "Cc1nn(-c2ccc(-c3ccc(OC(F)(F)F)cc3)cc2)c2nc(Cc3ccccc3)nc(N)c12", "CLASS_NAME": "inactive"}

Now turn to the next molecule.
Record request — test call for COc1ccc(C2=Cn3c(CCC(=O)c4nc5ccccc5[nH]4)nnc3SC2)cc1 inactive
